Assay: folding stability dG unfold (combined trypsin and chymotrypsin); higher = more stable
This section presents sequences with their documented folding stability dG unfold values.
Answer format: value, then unit.

# count of solved cases: 3
INSERT INTO assay_data (primary_sequence, value_type, reported_result) VALUES
  ('SADDDEEQKEKQKPKPQIPIKPVATYNFPDHPFEIWEIDPDNGRIIIRFWGNGWWYEMDPEDGEWEWYPSAG [r14_359_TrROS]', 'folding stability dG unfold', '2.14 kcal/mol'),
  ('SAGGSEIKIEIKYDEETGELVVEITVPESEEEVKKLVEELKKLGVEKVEIVRDKKTKEYRIRVVFKSAGGSA [r2_358_TrROS_Hall]', 'folding stability dG unfold', '4.82 kcal/mol'),
  ('SAGGGPPAKPVYLTVTVTTEDPVETAKKVEEEVKKLFPDAEILKVEVKKNPETNLYTVTVYVKKLVKSAGGS [r8_120_TrMRF]', 'folding stability dG unfold', '4.3 kcal/mol');

# next sequence below
Task: // folding stability dG unfold lookup, key: SAYKITIKITITDPVTGETTTITVELISSEEEAKKEAEKLAASYPGKKVTIDLVEVVPVPPLSEEELKLSSA [r9_421_JUSTAS]
Result: 2.43 kcal/mol

----------
This section presents sequences with their documented folding stability dG unfold values.
Assay: folding stability dG unfold from trypsin proteolysis; higher = more stable
Report only the number, with the unit kcal/mol understood.

# count of solved cases: 2
INSERT INTO assay_data (primary_sequence, reported_result) VALUES
  ('SAGGSAGGSAGGKKYKVVSIEKTKDYVRITIYNEETGELKTFTFPPGSTVTIKPGDTLTSAGGSAGGSAGGS [r10_834_TrROS_Hall]', 3.88),
  ('SAGGSAGGSAMKIKIEVVKNKNGYYYLKVEIEVNGKKIEITIKVPKNEKVSIEELLKKILKKSAGGSAGGSA [r18_111_TrROS_Hall]', 2.78);

# next sequence below
Task: // folding stability dG unfold lookup, key: SAGGSAGMNSEITLTIPVPHPRDEEGRVLPLSPEAIEKELKEKGYNVKIKEVKTSPSTITVTLKIISAGGSA [r15_225_JUSTAS]
Result: 0.864

----------
This section presents sequences with their documented folding stability dG unfold values.
Assay: folding stability dG unfold from trypsin proteolysis; higher = more stable
Answer format: value, then unit.

Task: // folding stability dG unfold lookup, key: SAGGGVSTSTDPNSDTTTTTVPLPNSDSTATSTHNPSTGTSTTTVPTNNTTTTYSPGGTTTATTTLPTSAGG [r13_101_JUSTAS]
Result: 0.465 kcal/mol

Task: Note, next up: SAGGSAGGSAMPLTSPEEAARHIKEALERLFPSSFPDRVIDPDVVVFTRPDGRVVALVKLKASAGGSAGGSA [r18_440_TrMRF]
Result: 0.877 kcal/mol

Task: Note, next up: SAGGKIKIRNPKTGLIVEVLEYNPETGKFKVKVTFPDGSVEEKEFPGSLEDLIEWLESEGFPFEVEGSAGGS [r16_748_TrMRF]
Result: 2.26 kcal/mol

Task: Note, next up: SAGGEKKPVKVKIEVESFKLPNVLVLKAKVYLPATGKWYEAIVIEGPTKTLVVIKFPDGSSLVLELNSAGGS [r16_657_TrMRF]
Result: 2.97 kcal/mol

----------
Experiment: folding stability dG unfold from trypsin proteolysis; higher = more stable
Use 3 kcal/mol as the dividing line for folding stability dG unfold, with the line itself on the Satisfied side and lower values as Not satisfied.

INSERT INTO assay_data (primary_sequence, category_label) VALUES
  ('SAGWKIKLENIEFFPNGRIRVMFEIEDPNGRPWRVQAQFDPDNPGKIKIKVENPDNGQEQEITFTIKPPSAG [r5_345_TrROS]', 'Satisfied');

Task: Does SMKPGDVKVIEIEVEYPWPPGDPEKAKEKVRDLVNSIMQEHGYDVDIPVEIEPRDGRYRVEVPIIIRPPNSA [r9_889_TrROS] have a reported folding stability dG unfold of at least 3 kcal/mol?
Result: Not satisfied

Task: Note, next up: SAGGKVTVENDTLTIPFPDGFTVEITLPPNDKTAVITLHTPPNNPLALAAAKAIADSLPDYKVEVRDESAGG [r13_34_TrMRF]
Result: Not satisfied

Task: Note, next up: SEEEYLVIEVEFEVENPEEAREFAERLARELPLDEIESLEVEVEPREVFVEGEPVGPVYRFRVRAVVRPRSA [r9_605_TrMRF]
Result: Not satisfied

Task: Note, next up: SAGGSAGGSAGTLTLRVQLFDEDGRLVAEREVELEVELPPPPPVELEFDEETRELRRRRLSAGGSAGGSAGG [r17_348_TrROS_Hall]
Result: Not satisfied

Task: Note, next up: SAGGSAGGSAGKEIIKNIPKGVKVLKIEPLPGKSGTYVKIEVEFPDPNGVKHRLTFIAPESAGGSAGGSAGG [r17_140_TrMRF]
Result: Not satisfied
